FYI, the data here is from ChEMBL document CHEMBL1149193.

- protocol text: in vivo
- run conditions: rat
observation type: bioavailability (%)
Your answer should be a plain number; it is taken to be in %.

Q. Which bioavailability is listed for Cc1noc(NS(=O)(=O)c2ccccc2-c2ccc(-c3ncco3)cc2CNC(=O)CC(C)(C)C)c1C ?
A. 100

====

- system under test: D(4) dopamine receptor (Homo sapiens, UniProt P21917)
- Sequence (P21917 whole entry, looked up): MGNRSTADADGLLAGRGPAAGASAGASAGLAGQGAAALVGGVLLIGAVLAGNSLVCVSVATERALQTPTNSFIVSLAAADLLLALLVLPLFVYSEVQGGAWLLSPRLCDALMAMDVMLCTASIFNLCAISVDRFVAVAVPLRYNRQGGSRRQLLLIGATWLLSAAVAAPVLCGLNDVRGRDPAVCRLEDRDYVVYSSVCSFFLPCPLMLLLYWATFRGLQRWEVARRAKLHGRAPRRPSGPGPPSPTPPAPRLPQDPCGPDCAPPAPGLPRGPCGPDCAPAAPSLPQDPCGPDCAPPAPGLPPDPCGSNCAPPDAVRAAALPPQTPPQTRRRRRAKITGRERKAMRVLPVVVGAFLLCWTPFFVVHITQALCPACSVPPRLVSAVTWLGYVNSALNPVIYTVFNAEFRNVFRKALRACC
observation type: Ki (nM)
Your answer should be a plain number; it is taken to be in nM.

Q. Write down the reported Ki of COc1cccc(CN2CC[C@H](NC(=O)c3cc(Cl)c(NC(=O)C4CC4)cc3OC)C2)c1 , test system: D(4) dopamine receptor (Homo sapiens, UniProt P21917).
A. 5.62
